B1: FCHSD1 (parent)
chain: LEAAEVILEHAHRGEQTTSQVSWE

# Variants of: B1
# PROCEDURE_DETAILS: protein stability index of a GFP-peptide fusion (GPS, HEK-293T) (PSI 1-6); higher = more stable;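 also: lentivirally expressed fusions sorted by FACS into six bins by GFP to DsRed ratio, PSI derived from sequencing read proportions per bin multiplied by bin number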
# RECORDED_CONDITIONS: c terminus: a fixed tail appended
READOUT_LABEL: protein stability index
Give your answer as a number; write no unit.

Record excerpt, results attached:
Measured protein stability index, `E2I` : 2.5

# protein stability index (variant: `L1E` ) is 4.55

Record `L8R` , field protein stability index: 4.92

Field protein stability index (entry `S22C` ) reads 3.85

Record summary for `E2D` : reported protein stability index = 4.31

The reported value for `V6F` in terms of protein stability index is 3.56

Measured protein stability index, `H12S` : 4.77

// protein stability index lookup, variant = `S22V` , result: 5.24

Next:
Lab book: protein stability index of `E9D` noted as 4.33

Per the records, this variant ( `E2N` ) has protein stability index equal to 4.42

According to the records, this variant `A11N` displays protein stability index of 4.18

In plain terms, `G14D` has a documented protein stability index of 4.68

The reported protein stability index of the variant `R13D` was 4.67

Looking up `V21G` , I see its protein stability index listed as 4.94

Sure, the documented protein stability index for `L8T` is 5.09

Sample `G14Y` ; protein stability index observed: 3.64

Summary for this variant, `H10K` : protein stability index is 4.48

Lab book: protein stability index of `Q20A` noted as 3.72

// field: protein stability index; key: `A4E` ; value = 5.11

Sample `I7G` ; protein stability index observed: 5.1

Reported protein stability index of `I7P` : 4.89

The variant listed as `T18R` has a reported protein stability index of 3.93

Record `E2Q` , field protein stability index: 4.41

// recorded protein stability index for `R13W` : 3.27

protein stability index recorded for this variant, `S22N` , is 4.47

Measured values drawn from the supplement of paper PMC10567573 for this set.
